The measured values listed here are drawn from patent US20040002144A1.

time required for the gelation of casein: recorded values
system-tested: casein
procedure-summary: cell-based or functional assay
Number in min, nothing else.

binder	readout-number
transglutaminase derived from Streptoverticillium mobaraense (MTG), wild type, P81453 77-407 (enzyme) DSDDRVTPPAEPLDRMPDPYRPSYGRAETVVNNYIRKWQQVYSHRDGRKQQMTEEQREWLSYGCVGVTWVNSGQYPTNRLAFASFDEDRFKNELKNGRPRSGETRAEFEGRVAKESFDEEKGFQRAREVASVMNRALENAHDESAYLDNLKKELANGNDALRNEDARSPFYSALRNTPSFKERNGGNHDPSRMKAVIYSKHFWSGQDRSSSADKRKYGDPDAFRPAPGTGLVDMSRDRNIPRSPTSPGEGFVNFDYGWFGAQTEADADKTVWTHGNHYHAPNGSLGAMHVYESKFRNWSEGYSDFDRGAYVITFIPKSWNTAPDKVKQGWP	90

Reported time required for the gelation of casein ( S2R mutant MTG (Ser2 replaced with Arg, in Met type MTG), P81453 79-407 (enzyme) MDRDDRVTPPAEPLDRMPDPYRPSYGRAETVVNNYIRKWQQVYSHRDGRKQQMTEEQREWLSYGCVGVTWVNSGQYPTNRLAFASFDEDRFKNELKNGRPRSGETRAEFEGRVAKESFDEEKGFQRAREVASVMNRALENAHDESAYLDNLKKELANGNDALRNEDARSPFYSALRNTPSFKERNGGNHDPSRMKAVIYSKHFWSGQDRSSSADKRKYGDPDAFRPAPGTGLVDMSRDRNIPRSPTSPGEGFVNFDYGWFGAQTEADADKTVWTHGNHYHAPNGSLGAMHVYESKFRNWSEGYSDFDRGAYVITFIPKSWNTAPDKVKQGWP ) = 85

Reported time required for the gelation of casein ( S2Y mutant MTG (Ser2 replaced with Tyr, in Met type MTG), P81453 79-407 (enzyme) MDYDDRVTPPAEPLDRMPDPYRPSYGRAETVVNNYIRKWQQVYSHRDGRKQQMTEEQREWLSYGCVGVTWVNSGQYPTNRLAFASFDEDRFKNELKNGRPRSGETRAEFEGRVAKESFDEEKGFQRAREVASVMNRALENAHDESAYLDNLKKELANGNDALRNEDARSPFYSALRNTPSFKERNGGNHDPSRMKAVIYSKHFWSGQDRSSSADKRKYGDPDAFRPAPGTGLVDMSRDRNIPRSPTSPGEGFVNFDYGWFGAQTEADADKTVWTHGNHYHAPNGSLGAMHVYESKFRNWSEGYSDFDRGAYVITFIPKSWNTAPDKVKQGWP ) = 100

Reported time required for the gelation of casein ( Ser-type MTG (mutant in which Asp1 has been removed, starts with Ser2), P81453 78-407 (enzyme) SDDRVTPPAEPLDRMPDPYRPSYGRAETVVNNYIRKWQQVYSHRDGRKQQMTEEQREWLSYGCVGVTWVNSGQYPTNRLAFASFDEDRFKNELKNGRPRSGETRAEFEGRVAKESFDEEKGFQRAREVASVMNRALENAHDESAYLDNLKKELANGNDALRNEDARSPFYSALRNTPSFKERNGGNHDPSRMKAVIYSKHFWSGQDRSSSADKRKYGDPDAFRPAPGTGLVDMSRDRNIPRSPTSPGEGFVNFDYGWFGAQTEADADKTVWTHGNHYHAPNGSLGAMHVYESKFRNWSEGYSDFDRGAYVITFIPKSWNTAPDKVKQGWP ) = 85
